Target: Neuronal acetylcholine receptor; alpha4/beta4 (Rattus norvegicus, UniProt P09483+P12392)
Sequence (P09483 whole entry): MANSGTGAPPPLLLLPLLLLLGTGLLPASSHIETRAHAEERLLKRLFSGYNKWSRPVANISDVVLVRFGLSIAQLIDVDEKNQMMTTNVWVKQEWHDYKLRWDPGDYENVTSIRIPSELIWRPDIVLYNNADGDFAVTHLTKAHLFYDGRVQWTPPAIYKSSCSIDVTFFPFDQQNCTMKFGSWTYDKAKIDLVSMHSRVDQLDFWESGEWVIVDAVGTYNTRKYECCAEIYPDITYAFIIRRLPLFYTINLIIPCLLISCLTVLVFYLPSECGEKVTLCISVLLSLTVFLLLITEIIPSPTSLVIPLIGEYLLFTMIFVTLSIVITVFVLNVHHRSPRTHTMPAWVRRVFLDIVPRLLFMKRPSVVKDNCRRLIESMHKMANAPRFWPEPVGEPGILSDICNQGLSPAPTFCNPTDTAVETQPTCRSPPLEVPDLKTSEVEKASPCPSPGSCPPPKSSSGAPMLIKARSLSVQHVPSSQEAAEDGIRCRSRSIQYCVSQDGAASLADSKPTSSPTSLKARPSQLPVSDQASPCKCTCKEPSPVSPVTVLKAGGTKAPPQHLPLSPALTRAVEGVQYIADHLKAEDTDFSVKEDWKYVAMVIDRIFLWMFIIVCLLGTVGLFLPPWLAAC
Sequence (P12392 whole entry): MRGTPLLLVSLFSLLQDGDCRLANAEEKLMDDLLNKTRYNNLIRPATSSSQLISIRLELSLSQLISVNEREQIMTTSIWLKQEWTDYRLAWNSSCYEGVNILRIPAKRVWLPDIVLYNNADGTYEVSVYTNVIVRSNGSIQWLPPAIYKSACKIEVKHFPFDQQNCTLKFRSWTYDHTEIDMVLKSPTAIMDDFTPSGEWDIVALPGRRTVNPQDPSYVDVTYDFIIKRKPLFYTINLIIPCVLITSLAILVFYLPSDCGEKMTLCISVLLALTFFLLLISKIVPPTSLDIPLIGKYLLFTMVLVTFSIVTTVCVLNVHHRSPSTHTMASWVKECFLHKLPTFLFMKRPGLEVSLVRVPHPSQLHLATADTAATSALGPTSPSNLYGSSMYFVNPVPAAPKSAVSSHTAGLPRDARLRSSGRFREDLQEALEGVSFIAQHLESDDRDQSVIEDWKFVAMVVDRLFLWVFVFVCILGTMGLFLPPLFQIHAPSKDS
Experiment: Displacement of [3H]epibatidine from rat alpha4beta4 nACHR expressed in HEK293 cells after 4 hrs by scintillation counting assay
metric: pKi
Quick note: pKi values are minus log10 of concentrations in mol/L.

Below: 3 compounds and their reported pKi.
| compound | numericResult |
| --- | --- |
| c1ccc(CN2CCCN(c3cccnc3)CC2)cc1 | 5.47 |
| CN(C)C(=O)OCCC(CCC(O)c1ccccc1)N(C)C (stereo not drawn) | 5.17 |
| CN(C)C(CCCCc1ccccc1)CCOc1nccn1C (stereo not drawn) | 5.43 |

## Task Provide pKi, recorded with Neuronal acetylcholine receptor; alpha4/beta4 (Rattus norvegicus, UniProt P09483+P12392), of `c1ccc(CCN2CCN(c3cccnc3)CC2)cc1`
## Result 5.05

## Task Please respond with reported pKi (system Neuronal acetylcholine receptor; alpha4/beta4 (Rattus norvegicus, UniProt P09483+P12392)) for `Brc1ccc(N2CCCN(CCCc3ccccc3)CC2)cn1` .
## Result 5.82

## Task Write pKi of CNC(=O)OCCC(C)N(C)Cc1ccccc1 (stereo not drawn) ; system used: Neuronal acetylcholine receptor; alpha4/beta4 (Rattus norvegicus, UniProt P09483+P12392)
## Result 3.52

## Task State pKi (Neuronal acetylcholine receptor; alpha4/beta4 (Rattus norvegicus, UniProt P09483+P12392)) of CNC(=O)OCCC(CCCCCc1ccccc1)N(C)C (stereo not drawn) .
## Result 5.35

## Task Answer briefly: pKi recorded on Neuronal acetylcholine receptor; alpha4/beta4 (Rattus norvegicus, UniProt P09483+P12392) for CNC(=O)OCCC(CCCc1ccccc1)N(C)C (stereo not drawn)
## Result 4.52

## Task GET pKi | system: Neuronal acetylcholine receptor; alpha4/beta4 (Rattus norvegicus, UniProt P09483+P12392) | item: CNC(=O)OCCC(C)N(C)CCc1ccccc1 (stereo not drawn)
## Result 3.52

## Task GET pKi | system: Neuronal acetylcholine receptor; alpha4/beta4 (Rattus norvegicus, UniProt P09483+P12392) | item: CN(C)C(=O)OCCC(COc1ccc(F)cc1)N(C)C (stereo not drawn)
## Result 4.00

## Task Provide pKi, recorded with Neuronal acetylcholine receptor; alpha4/beta4 (Rattus norvegicus, UniProt P09483+P12392), of CNC(=O)OCCC(C)N(C)CC(O)c1ccccc1 (stereo not drawn)
## Result 3.52

###

Molecular target: Neuronal acetylcholine receptor; alpha3/beta4 (Rattus norvegicus, UniProt P04757+P12392)
Sequence (P04757 whole entry): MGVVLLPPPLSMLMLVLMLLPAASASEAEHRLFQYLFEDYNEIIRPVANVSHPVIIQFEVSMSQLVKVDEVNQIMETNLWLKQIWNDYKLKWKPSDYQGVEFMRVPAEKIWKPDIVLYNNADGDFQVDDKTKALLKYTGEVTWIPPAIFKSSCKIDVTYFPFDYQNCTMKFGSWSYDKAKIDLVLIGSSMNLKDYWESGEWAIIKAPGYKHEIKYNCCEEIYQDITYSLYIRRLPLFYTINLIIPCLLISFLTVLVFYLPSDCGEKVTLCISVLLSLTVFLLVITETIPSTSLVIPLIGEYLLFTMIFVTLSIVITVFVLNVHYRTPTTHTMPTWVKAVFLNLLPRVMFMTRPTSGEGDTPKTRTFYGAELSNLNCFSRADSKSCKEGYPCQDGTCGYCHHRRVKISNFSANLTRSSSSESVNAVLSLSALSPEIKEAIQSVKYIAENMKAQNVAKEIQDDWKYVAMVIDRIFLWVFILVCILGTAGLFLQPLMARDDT
Sequence (P12392 whole entry): as the sequence (P12392 whole entry) above
Test: Displacement of [3H]epibatidine from rat alpha3beta4 nACHR expressed in HEK293 cells after 4 hrs by scintillation counting assay
Format: cell-based
Conditions: read-out: Ki
pKi: −log10 of the molar value.
metric: pKi

| compound | pKi |
| --- | --- |
| CNC(=O)OCCC(CCC(O)c1ccccc1)N(C)C (stereo not given) | < 3.52 |

## Task Recall and state the measured pKi for `c1ccc(CN2CCN(c3cccnc3)CC2)cc1` .
## Result < 3.52

## Task Look up and state reported pKi for CC(CCOC(=O)N(C)C)N(C)CCCc1ccccc1 (stereo not given)
## Result < 3.00

## Task For the compound CC(CCOC(=O)N(C)C)N(C)CC(O)Cc1ccccc1 (stereo not given) , give its reported pKi.
## Result < 3.00

## Task Input CNC(=O)OCCC(C)N(C)CCCc1ccccc1 (stereo not given) , output reported pKi.
## Result < 3.00
